Dmax values for the compounds below.
Target: BCL6 (Homo sapiens, UniProt P41182)
Construct: endogenous in cells; host or cells: T47D breast cancer epithelial cells
Test: Immunofluorescence protocol for high content imaging of BCL6 (degradation) in T47D cells, 3 days compound treatment
Type: cell-based
Settings: T47D cells, 3 days compound treatment, read-out: Mean Dmax (%)** category

compound	Dmax
CNC(=O)COc1cc2cc(Nc3nc(N4CCC5(CC4)CN(C(=O)C4CCN(c6cccc7c6CN(C6CCC(=O)NC6=O)C7=O)CC4)C5)ncc3Cl)ccc2n(C(C)C)c1=O (stereo not drawn) [Compound 22]	50 to 70%
CNC(=O)COc1cc2cc(Nc3nc(N4CCC(F)(CN5CC(N6CCC(c7ccc8c(c7)C(=O)N(C7CCC(=O)NC7=O)C8=O)CC6)C5)CC4)ncc3Cl)ccc2n(C(C)C)c1=O (stereo not drawn) [Compound 97]	50 to 70%

--- query ---
Challenge: Form field: reported Dmax of CNC(=O)COc1cc2cc(Nc3nc(N4CCC(CN5CC6(CCN(c7cc(F)c8c(c7)CN(C7CCC(=O)NC7=O)C8=O)CC6)C5)CC4)ncc3Cl)ccc2n(C(C)C)c1=O (stereo not drawn) [Compound 86]
Response given: 50 to 70%

----------
Molecular target: BCL6 (Homo sapiens)
Construct: endogenous in cells; host or cells: T47D breast cancer epithelial cells
Experiment: Immunofluorescence protocol for high content imaging of BCL6 (degradation) in T47D cells, 3 days compound treatment
Format: cell-based
Settings: read-out: Mean DC50 (nM)* category
property: DC50

molecule	reportedValue
CNC(=O)COc1cc2cc(Nc3cc(N4CCC(F)(CN5CCC6(CC5)CN(c5ccc7c(c5)CN(C5CCC(=O)NC5=O)C7=O)C6(C)C)CC4)ncc3Cl)ccc2n(C(C)C)c1=O (stereo not drawn)	< 10 nM
CNC(=O)COc1cc2cc(Nc3nc(N4CCC(O[C@H]5C[C@H](N6CC[C@@H](c7ccc8c(c7F)CN(C7CCC(=O)NC7=O)C8=O)C(C)(C)C6)C5)CC4)ncc3Cl)ccc2n(C(C)C)c1=O (stereo partly drawn)	< 10 nM

--- query ---
Challenge: Look up DC50 with BCL6 (Homo sapiens) for this molecule: CNC(=O)COc1cc2cc(Nc3nc(N4CCC(O[C@H]5C[C@H](N6CCN(c7ccc8c(c7F)C(=O)N(C7CCC(=O)NC7=O)C8=O)CC6)C5)CC4)ncc3Cl)ccc2n(C(C)C)c1=O (stereo partly drawn)
Response given: 10 to 50 nM

----------
Molecular target: BCL6 (Homo sapiens, UniProt P41182)
Construct: endogenous in cells; host or cells: T47D breast cancer epithelial cells
Experiment: Immunofluorescence protocol for high content imaging of BCL6 (degradation) in T47D cells, 3 days compound treatment
Type: cell-based
Conditions: read-out: Mean DC50 (nM)* category
property: DC50

Challenge: Form field: reported DC50 of CNC(=O)COc1cc2c(F)c(Nc3nc(N4CCC(O[C@H]5C[C@H](N6CCC(c7ccc8c(c7F)CN([C@H]7CCC(=O)NC7=O)C8=O)CC6)C5)CC4)ncc3Cl)ccc2n(C(C)C)c1=O [Compound 380]
Response given: < 10 nM

----------
Biological target: BCL6 (Homo sapiens, UniProt P41182)
Construct: endogenous in cells; host or cells: T47D breast cancer epithelial cells
Assay: Immunofluorescence protocol for high content imaging of BCL6 (degradation) in T47D cells, 3 days compound treatment
Type: cell-based
Conditions: T47D cells, 3 days compound treatment, read-out: Mean DC50 (nM)* category
property: DC50

Challenge: Form field: reported DC50 of CNC(=O)COc1cc2cc(Nc3nc(N4CCC(CN5CCC6(CC5)CN(c5ccc7c(c5)C(=O)N(C5CCC(=O)NC5=O)C7=O)C6)CC4)ncc3F)ccc2n(C(C)C)c1=O (centres unmarked) [Compound 57]
Response given: 10 to 50 nM

Challenge: Form field: reported DC50 of CNC(=O)COc1cc2cc(Nc3nc(N4CCC5(CCN(CC6(F)CCN(c7ccc(F)c8c7C(=O)N(C7CCC(=O)NC7=O)C8)CC6)CC5)CC4)ncc3Cl)ccc2n(C(C)C)c1=O (centres unmarked) [Compound 130]
Response given: ≥ 100 nM

Challenge: Form field: reported DC50 of CNC(=O)COc1cc2cc(Nc3nc(N4CCC(CN5CCC6(CN(c7cccc8c7C(=O)N(C7CCC(=O)NC7=O)C8=O)C6)C(F)(F)C5)CC4)ncc3Cl)ccc2n(C(C)C)c1=O (centres unmarked) [Compound 91]
Response given: < 10 nM

Challenge: Form field: reported DC50 of CNC(=O)COc1cc2cc(Nc3nc(N4CCC(C(C)(C)N5CCC6(CCN(c7ccc8c(c7)CN(C7CCC(=O)NC7=O)C8=O)C6)C5)CC4)ncc3Cl)ccc2n(C(C)C)c1=O (centres unmarked) [Compound 53]
Response given: < 10 nM

Challenge: Form field: reported DC50 of CNC(=O)COc1cc2cc(Nc3nc(N4CCC(O[C@H]5C[C@H](N6CC[C@H](c7ccc8c(c7)C(=O)N(C7CCC(=O)NC7=O)C8=O)[C@H](F)C6)C5)CC4)ncc3Cl)ccc2n(C(C)C)c1=O (mixture of isomers) [Compound 118]
Response given: 10 to 50 nM

Challenge: Form field: reported DC50 of CNC(=O)COc1cc2cc(Nc3nc(N4CCC(F)(CN5CCC6(CC5)CCN(c5cccc7c5CN(C5CCC(=O)NC5=O)C7=O)CC6)CC4)ncc3Cl)ccc2n(C(C)C)c1=O (centres unmarked) [Compound 82]
Response given: < 10 nM

Challenge: Form field: reported DC50 of CNC(=O)COc1cc2cc(Nc3nc(N4CCC(CN5CC6(CCN(c7ccc8c(c7F)CN(C7CCC(=O)NC7=O)C8=O)CC6)C5)CC4)ncc3Cl)ccc2n(C(C)C)c1=O (centres unmarked) [Compound 87]
Response given: < 10 nM

Challenge: Form field: reported DC50 of CNC(=O)COc1cc2cc(Nc3nc(N4CCC(O[C@H]5C[C@H](N6CCC(c7cc(F)c8c(c7F)CN([C@H]7CCC(=O)NC7=O)C8=O)CC6)C5)CC4)ncc3Cl)ccc2n(C(C)C)c1=O [Compound 188]
Response given: < 10 nM

Challenge: Form field: reported DC50 of CNC(=O)COc1cc2cc(Nc3nc(N4CCC(CN5CCC6(CC5)CN(c5ccc7c(c5F)CN(C5CCC(=O)NC5=O)C7=O)C6(C)C)CC4)ncc3Cl)ccc2n(C(C)C)c1=O (centres unmarked) [Compound 162]
Response given: < 10 nM

----------
Molecular target: BCL6 (Homo sapiens, UniProt P41182)
Construct: endogenous in cells; host or cells: T47D breast cancer epithelial cells
Test: Immunofluorescence protocol for high content imaging of BCL6 (degradation) in T47D cells, 3 days compound treatment
Assay type: cell-based
Conditions: read-out: Mean DC50 (nM)* category
DC50 values for the molecules below.

Worked set:
molecule	DC50
CNC(=O)COc1cc2cc(Nc3nc(N4CCC(O[C@H]5C[C@H](N6CCC(F)(c7ccc8c(c7F)CN(C7CCC(=O)NC7=O)C8=O)CC6)C5)CC4)ncc3Cl)ccc2n(C(C)C)c1=O (some centres unmarked)	< 10 nM
CNC(=O)COc1cc2cc(Nc3nc(N4CCC(O[C@H]5C[C@H](N6CCC7(c8ccc9c(c8F)CN(C8CCC(=O)NC8=O)C9=O)CC7C6)C5)CC4)ncc3Cl)ccc2n(C(C)C)c1=O (some centres unmarked)	< 10 nM
CNC(=O)COc1cc2cc(Nc3nc(N4CCC(O[C@H]5C[C@H](N6C7CCC6CN(c6ccc8c(c6)C(=O)N(C6CCC(=O)NC6=O)C8=O)C7)C5)CC4)ncc3Cl)ccc2n(C(C)C)c1=O (some centres unmarked)	< 10 nM
CNC(=O)COc1cc2cc(Nc3nc(N4CCC(O[C@H]5C[C@H](N6CCN(c7ccc8c(c7)C(=O)N(C7CCC(=O)NC7=O)C8=O)C(C)(C)C6)C5)CC4)ncc3Cl)ccc2n(C(C)C)c1=O (some centres unmarked)	10 to 50 nM

Challenge: Look up DC50 with BCL6 (Homo sapiens, UniProt P41182) for this molecule: CNC(=O)COc1cc2c(F)c(Nc3cc(N4CCC(CN5CCC6(CN(c7ccc8c(c7)CN(C7CCC(=O)NC7=O)C8=O)C6)C(F)(F)C5)CC4)ncc3Cl)ccc2n(C(C)C)c1=O (centres unmarked)
Response given: < 10 nM

----------
Molecular target: BCL6 (Homo sapiens)
Construct: endogenous in cells; host or cells: T47D breast cancer epithelial cells
Assay: Immunofluorescence protocol for high content imaging of BCL6 (degradation) in T47D cells, 3 days compound treatment
Type: cell-based
Conditions: T47D cells, 3 days compound treatment, read-out: Mean DC50 (nM)* category
property: DC50

Worked set:
compound	DC50
CCc1c(N2CCN([C@H]3C[C@H](OC4CCN(c5ncc(Cl)c(Nc6ccc7c(c6)cc(OCC(=O)NC)c(=O)n7C(C)C)n5)CC4)C3)CC2)ccc2c1C(=O)N(C1CCC(=O)NC1=O)C2=O (some centres unmarked)	10 to 50 nM
CNC(=O)COc1cc2cc(Nc3nc(N4CCN(C(C)(C)C5CCN(c6ccc7c(c6OC)CN(C6CCC(=O)NC6=O)C7=O)CC5)CC4)ncc3Cl)ccc2n(C(C)C)c1=O (centres unmarked)	< 10 nM
CNC(=O)COc1cc2cc(Nc3nc(N4CCCC4)ncc3Cl)ccc2n(CCOc2ccc3c(c2)C(=O)N(C2CCC(=O)NC2=O)C3=O)c1=O (centres unmarked)	10 to 50 nM
CNC(=O)COc1cc2cc(Nc3nc(N4CCC5(CCN(CC6CCN(c7ccc8c(c7)C(=O)N(C7CCC(=O)NC7=O)C8=O)CC6)C5)C4)ncc3Cl)ccc2n(C(C)C)c1=O (centres unmarked)	10 to 50 nM
CNC(=O)COc1cc2cc(Nc3nc(N4CCC(CN5CC6(CCN(c7cc8c(cc7F)C(=O)N(C7CCC(=O)NC7=O)C8)CC6)C5)CC4)ncc3Cl)ccc2n(C(C)C)c1=O (centres unmarked)	< 10 nM

Challenge: Look up DC50 with BCL6 (Homo sapiens) for this compound: CNC(=O)COc1cc2cc(Nc3nc(N4CCC(O[C@H]5C[C@H](N6CCN(c7ccc8c(c7F)CN(C7CCC(=O)NC7=O)C8=O)[C@H](C)C6)C5)CC4)ncc3Cl)ccc2n(C(C)C)c1=O (some centres unmarked)
Response given: < 10 nM

Challenge: Look up DC50 with BCL6 (Homo sapiens) for this compound: CNC(=O)COc1cc2cc(Nc3nc(N4CCN(CC5CC6(CCN(c7cccc8c7CN(C7CCC(=O)NC7=O)C8=O)CC6)C5)CC4)ncc3Cl)ccc2n(C(C)C)c1=O (centres unmarked)
Response given: < 10 nM

Challenge: Look up DC50 with BCL6 (Homo sapiens) for this compound: CNC(=O)COc1cc2cc(Nc3nc(N4CCC(OC5CCC6(CC5)CN(c5cc7c(cc5F)C(=O)N(C5CCC(=O)NC5=O)C7)C6)CC4)ncc3Cl)ccc2n(C(C)C)c1=O (centres unmarked)
Response given: < 10 nM

Challenge: Look up DC50 with BCL6 (Homo sapiens) for this compound: CNC(=O)COc1cc2cc(Nc3nc(N4CCC(CN5CCC6(CC5)CN(c5ccc7c(c5)C(=O)N(C5CCC(=O)NC5=O)C7=O)C6)CC4)ncc3Cl)ccc2n(C2CC2)c1=O (centres unmarked)
Response given: < 10 nM

Challenge: Look up DC50 with BCL6 (Homo sapiens) for this compound: CNC(=O)COc1cc2cc(Nc3nc(N4CCC(CN5CCC6(CN(c7ccc8c(c7)C(=O)N(C7CCC(=O)NC7=O)C8=O)C6)C(F)(F)C5)CC4)ncc3Cl)ccc2n(C(C)C)c1=O (centres unmarked)
Response given: < 10 nM

Challenge: Look up DC50 with BCL6 (Homo sapiens) for this compound: CNC(=O)COc1cc2cc(Nc3nc(N4CCN(C(C)(C)C5CCN(c6cc7c(cc6OC)C(=O)N(C6CCC(=O)NC6=O)C7)CC5)CC4)ncc3Cl)ccc2n(C(C)C)c1=O (centres unmarked)
Response given: < 10 nM

Challenge: Look up DC50 with BCL6 (Homo sapiens) for this compound: CNC(=O)COc1cc2cc(Nc3nc(N4CCC(O[C@H]5C[C@H](N6CCC(c7cc(C)c8c(c7F)CN(C7CCC(=O)NC7=O)C8=O)CC6)C5)CC4)ncc3Cl)ccc2n(C(C)C)c1=O (some centres unmarked)
Response given: < 10 nM
